Source: the supplement of paper PMC6609913

Test system: V-C8 (BRCA2-deficient hamster cells)
ASSAY_PROTOCOL: normalised cell viability (fraction of plate median); higher = more viable cells (less toxic)
RUN_CONDITIONS: treatment time: 3 days; 5 µM
Counter-ions that a name gives are not always drawn. The full ranking holds about 1,300 compounds; the median of “normalised cell viability” is about 1, and the lowest 2% start at about 0.14. This is one part of a sample in which the lowest values are shown more often than they occur.
Readings of normalised cell viability for the listed compounds

Worked cases, answers included:
COMPOUND	normalised cell viability
C[C@]12CC[C@H]3[C@@H](CCC4=CC(=O)CC[C@@H]43)[C@@H]1CC[C@@H]2O [Nandrolone]	0.993
CCN[C@@H](C)Cc1cccc(C(F)(F)F)c1 [Dexfenfluramine hydrochloride]	0.908

Please look up its normalised cell viability: C=C1[C@@H]2CC[C@H]3[C@]4(C)C[C@H](O[C@@H]5O[C@H](CO)[C@@H](OS(=O)(=O)O)[C@H](OS(=O)(=O)O)[C@H]5OC(=O)CC(C)C)C[C@@H](C(=O)O)[C@H]4CC[C@]3(C2)[C@@H]1O [Atractyloside potassium salt]
1.05

Please look up its normalised cell viability: CN1C[C@H](CNC(=O)OCc2ccccc2)C[C@@H]2c3cccc4c3c(cn4C)C[C@H]21 [Metergoline]
0.145

Please look up its normalised cell viability: C=CCC1(CC(C)C)C(=O)NC(=O)NC1=O [Butalbital]
1.1

Please look up its normalised cell viability: COc1cc([C@@H]2c3cc4c(cc3[C@H](O)[C@H]3COC(=O)[C@H]23)OCO4)cc(OC)c1OC [Podophyllotoxin]
0.126

Please look up its normalised cell viability: O=C(CCCN1CCC(n2c(=O)[nH]c3ccccc32)CC1)c1ccc(F)cc1 [Benperidol]
0.93

---

Readings of normalised cell viability for the listed molecules
Tested on: V-C8 (BRCA2-deficient hamster cells)
ASSAY_PROTOCOL: normalised cell viability (fraction of plate median); higher = more viable cells (less toxic)
RUN_CONDITIONS: treatment time: 6 days; 5 µM
Where a name gives a salt, the structure may show the parent alone. The full ranking holds about 1,300 compounds; the median of “normalised cell viability” is about 1, and the lowest 2% start at about 0.14. Shown is part of a subset that was picked to be rich in the lowest values.
Just the number, please, no unit after it.

Worked cases, answers included:
MOLECULE	OBSERVED
CCN(C(C)=O)c1cccc(-c2ccnc3c(C#N)cnn23)c1	0.981
C(#CCN1CCCC1)CN1CCCC1 [Tremorine dihydrochloride]	1.08
CN1CCN(C(=O)OC2c3nccnc3C(=O)N2c2ccc(Cl)cn2)CC1 (centres undefined)	1.04
CO[C@]12C[C@@H](COC(=O)c3cncc(Br)c3)CN(C)[C@@H]1Cc1cn(C)c3cccc2c13	0.994
C[C@]12C[C@H]3S[C@H]3C[C@@H]1CC[C@@H]1[C@@H]2CC[C@]2(C)[C@@H](O)CC[C@@H]12 [Epitiostanol]	1.03

Please look up its normalised cell viability: NC(=O)OCCCc1ccccc1 [Phenprobamate]
1.08

Please look up its normalised cell viability: CC[C@@]1(O)C(=O)OCc2c1cc1n(c2=O)Cc2cc3ccccc3nc2-1 [Camptothecine (S,+)]
0.109

Please look up its normalised cell viability: CC[C@@]1([C@@H]2O[C@@H]([C@H]3O[C@@](O)(CO)[C@H](C)C[C@@H]3C)C[C@@H]2C)CC[C@H]([C@]2(C)CC[C@]3(C[C@H](O)[C@@H](C)[C@@H]([C@@H](C)[C@@H](OC)[C@H](C)C(=O)O)O3)O2)O1 [Monensin sodium salt]
0.128

Please look up its normalised cell viability: CCN[C@@H](C)Cc1cccc(C(F)(F)F)c1 [Dexfenfluramine hydrochloride]
1.02

Please look up its normalised cell viability: `C[C@H](N)[C@H](O)c1ccc(O)c(O)c1`
1.02

---

Tested on: V-C8 (BRCA2-deficient hamster cells)
ASSAY_PROTOCOL: normalised cell viability (fraction of plate median); higher = more viable cells (less toxic)
RUN_CONDITIONS: treatment time: 3 days; 5 µM
Whole data set: some 1,300 compounds, median “normalised cell viability” near 1, cut for the lowest 2% near 0.14. Only a selection was taken, and the lowest values are over-represented in it overall.
QUANTITY: normalised cell viability
Just the number, please, no unit after it.

COMPOUND	OBSERVED
C[C@@H]1O[C@@H](O[C@@H]2C=C3CC[C@@H]4[C@H](CC[C@]5(C)[C@@H](c6ccc(=O)oc6)CC[C@]45O)[C@@]3(C)CC2)[C@H](O)[C@H](O)[C@H]1O	0.945
CN[C@@H]1[C@@H](O)[C@@H](O[C@@H]2[C@@H](O)[C@H](O[C@H]3O[C@H](CN)CC[C@H]3N)[C@@H](N)C[C@H]2N)OC[C@]1(C)O.CN[C@@H]1[C@@H](O)[C@@H](O[C@@H]2[C@@H](O)[C@H](O[C@H]3O[C@H]([C@@H](C)N)CC[C@H]3N)[C@@H](N)C[C@H]2N)OC[C@]1(C)O.CN[C@@H]1[C@@H](O)[C@@H](O[C@@H]2[C@@H](O)[C@H](O[C@H]3O[C@H]([C@@H](C)NC)CC[C@H]3N)[C@@H](N)C[C@H]2N)OC[C@]1(C)O [Gentamicine sulfate]	0.961

Please look up its normalised cell viability: NC(=O)OCCCc1ccccc1 [Phenprobamate]
1.14

Please look up its normalised cell viability: C[N+]1(C)[C@@H]2CC[C@H]1C[C@@H](OC(=O)C(CO)c1ccccc1)C2 (stereo not given in full) [Methylatropine nitrate]
1.11

Please look up its normalised cell viability: CC[C@@]1(O)C(=O)OCc2c1cc1n(c2=O)Cc2cc3ccccc3nc2-1 [Camptothecine (S,+)]
0.148

---

System: V-C8 (BRCA2-deficient hamster cells)
ASSAY_PROTOCOL: normalised cell viability (fraction of plate median); higher = more viable cells (less toxic)
RUN_CONDITIONS: treatment time: 6 days; 5 µM
Counter-ions that a name gives are not always drawn. Over roughly 1,300 compounds, “normalised cell viability” has its median near 1; the lowest 2% begin near 0.14. Many of the other results were omitted from the sample, so the lowest values are more common in it than they were.
So basically, if normalised cell viability comes in under 0.2 it's MET, and if it's 0.2 or more it's NOT MET.

See these solved cases before continuing.
MOLECULE	ASSIGNED_CATEGORY
CC(C)(C)NCC(O)c1ccccc1Cl (centres undefined)	NOT MET
COc1cc([C@@H]2c3cc4c(cc3[C@H](O)[C@H]3COC(=O)[C@H]23)OCO4)cc(OC)c1OC	MET
S=C(NC1CCCCC1)N1CCC(c2cnc[nH]2)CC1 [Thioperamide maleate]	NOT MET

Quick check: normalised cell viability of `C[C@]12Cc3c[nH]nc3C[C@@H]1CC[C@@H]1[C@@H]2CC[C@@]2(C)[C@H]1CC[C@]2(C)O` under 0.2?
NOT MET

Quick check: normalised cell viability of CN[C@@H]1[C@@H](O)[C@@H](O[C@@H]2[C@@H](O)[C@H](O[C@H]3O[C@H](CN)CC[C@H]3N)[C@@H](N)C[C@H]2N)OC[C@]1(C)O.CN[C@@H]1[C@@H](O)[C@@H](O[C@@H]2[C@@H](O)[C@H](O[C@H]3O[C@H]([C@@H](C)N)CC[C@H]3N)[C@@H](N)C[C@H]2N)OC[C@]1(C)O.CN[C@@H]1[C@@H](O)[C@@H](O[C@@H]2[C@@H](O)[C@H](O[C@H]3O[C@H]([C@@H](C)NC)CC[C@H]3N)[C@@H](N)C[C@H]2N)OC[C@]1(C)O [Gentamicine sulfate] under 0.2?
NOT MET

Quick check: normalised cell viability of C[C@@H]1C[C@@H]([C@H](O)CC2CC(=O)NC(=O)C2)C(=O)[C@@H](C)C1 [Cycloheximide] under 0.2?
MET

Quick check: normalised cell viability of CCC1(C)CC(=O)NC(=O)C1 [Bemegride] under 0.2?
NOT MET

Quick check: normalised cell viability of `CN1C[C@H](CNC(=O)OCc2ccccc2)C[C@@H]2c3cccc4c3c(cn4C)C[C@H]21` under 0.2?
MET

Quick check: normalised cell viability of `C[C@@H]1O[C@@H](O[C@@H]2C=C3CC[C@@H]4[C@H](CC[C@]5(C)[C@@H](c6ccc(=O)oc6)CC[C@]45O)[C@@]3(C)CC2)[C@H](O)[C@H](O)[C@H]1O` under 0.2?
NOT MET

Quick check: normalised cell viability of `COc1ccc(CCN2CCC(Nc3nc4ccccc4n3Cc3ccc(F)cc3)CC2)cc1` under 0.2?
MET

Quick check: normalised cell viability of `O=C(CCCN1CCC(n2c(=O)[nH]c3ccccc32)CC1)c1ccc(F)cc1` under 0.2?
NOT MET

Quick check: normalised cell viability of C[N+](C)(C)CCCCCCCCCC[N+](C)(C)C [Decamethonium bromide] under 0.2?
NOT MET

Quick check: normalised cell viability of `Fc1ccc(C(OCCN2CCN(CCCc3ccccc3)CC2)c2ccc(F)cc2)cc1` under 0.2?
MET

Quick check: normalised cell viability of `C[C@]12CC[C@H]3[C@@H](CCC4=CC(=O)CC[C@@H]43)[C@@H]1CC[C@@H]2O` under 0.2?
NOT MET
